test system: L1210 cells; assay: Polyamine pool analysis in L1210 cells; format: cell-based, murine; settings: intracellular amount; 500 μM, 48 hours
Structures can show the parent of a compound that is named as a salt.
MEASUREMENT TYPE: Analogue (nmol/10^6 cells)

> print(dat)
                                   compound       units.text   val
1    CNCCCCNCCCNC [DMSPD, Trihydrochloride]  nmol/10^6 cells  4.89
2  CCCNCCCNCCCCN [MPSPD(N1), N^1-Propylspermidine Trihydrochloride]  nmol/10^6 cells  4.95
3  CCNCCCCNCCCN [MESPD(N8), N^8-Ethylspermidine Trihydrochloride]  nmol/10^6 cells  4.96
